These measurements were taken from paper PMC12332266.

In this section, each of the molecules is paired with its reported fold induction at 0.3 µM.
test system: hiPSC-CM (iCell Cardiomyocytes^2); assay: Intracellular miRNA expression by RT-qPCR in hiPSC-CM pellets after 72-hour treatment; conditions: Homo sapiens, 72 h, read-out: hsa-miR-96-5p fold change
Form: value (number only, do not type unit).

Recorded fold induction at 0.3 µM, per entry:
molecule	fold induction at 0.3 µM
CCCN1C[C@H](CSC)C[C@@H]2c3cccc4[nH]cc(c34)C[C@H]21 [Pergolide]	2.8
CCN[C@@H](C)Cc1cccc(C(F)(F)F)c1 [Dexfenfluramine]	0.7
CC[C@]1(O)C[C@H]2CN(CCc3c([nH]c4ccccc34)[C@@](C(=O)OC)(c3cc4c(cc3OC)N(C=O)[C@H]3[C@@](O)(C(=O)OC)[C@H](OC(C)=O)[C@]5(CC)C=CCN6CC[C@]43[C@@H]65)C2)C1 [Vincristine]	0.8
CCC1=C[C@@H]2CN(C1)Cc1c([nH]c3ccccc13)[C@@](C(=O)OC)(c1cc3c(cc1OC)N(C)[C@H]1[C@@](O)(C(=O)OC)[C@H](OC(C)=O)[C@]4(CC)C=CCN5CC[C@]31[C@@H]54)C2 [Vinorelbine]	4.8

Now look at this one.
Exercise: Requested field: fold induction at 0.3 µM. Item: CC(=O)[C@]1(O)Cc2c(O)c3c(c(O)c2[C@@H](O[C@H]2C[C@H](N)[C@H](O)[C@H](C)O2)C1)C(=O)c1ccccc1C3=O [Idarubicin]
Solution: 21.3

---

system: hiPSC-CM (iCell Cardiomyocytes^2); test: RTCA CardioECR assessment (impedance and electrophysiology parameters); settings: human, 72 h
In this section, each of the molecules is paired with its reported Field Potential Duration MEC.

Exercise: Requested field: Field Potential Duration MEC. Item: CS(=O)(=O)CCNCc1ccc(-c2ccc3ncnc(Nc4ccc(OCc5cccc(F)c5)c(Cl)c4)c3c2)o1
Solution: 0.1 µM

Exercise: Requested field: Field Potential Duration MEC. Item: COc1cc([C@@H]2c3cc4c(cc3[C@@H](O[C@@H]3O[C@@H]5CO[C@@H](C)O[C@H]5[C@H](O)[C@H]3O)[C@H]3COC(=O)[C@H]23)OCO4)cc(OC)c1O [Etoposide]
Solution: 3 µM

Exercise: Requested field: Field Potential Duration MEC. Item: CCC1=C[C@@H]2CN(C1)Cc1c([nH]c3ccccc13)[C@@](C(=O)OC)(c1cc3c(cc1OC)N(C)[C@H]1[C@@](O)(C(=O)OC)[C@H](OC(C)=O)[C@]4(CC)C=CCN5CC[C@]31[C@@H]54)C2
Solution: 1 µM

Exercise: Requested field: Field Potential Duration MEC. Item: COc1cccc2c1C(=O)c1c(O)c3c(c(O)c1C2=O)C[C@@](O)(C(=O)CO)C[C@@H]3O[C@H]1C[C@H](N)[C@@H](O)[C@H](C)O1 [Epirubicin]
Solution: 0.3 µM

---

tested on: hiPSC-CM (iCell Cardiomyocytes^2); test: Intracellular miRNA expression by RT-qPCR in hiPSC-CM pellets after 72-hour treatment; conditions: 0.3 µM, 72 h
Where a name gives a salt, the structure may show the parent alone.
In this section, each of the compounds is paired with its reported hsa-miR-365a-5p fold change, intracellular.
Form: value (number only, do not type unit).

Recorded hsa-miR-365a-5p fold change, intracellular, per entry:
compound	measured_number
CC(C)C[C@H](NC(=O)CNC(=O)c1cc(Cl)ccc1Cl)B1OC(=O)C(CC(=O)O)(CC(=O)O)O1 [Ixazomib Citrate]	2.5
Cc1cn(-c2cc(NC(=O)c3ccc(C)c(Nc4nccc(-c5cccnc5)n4)c3)cc(C(F)(F)F)c2)cn1	0.7
CC(C)C[C@H](NC(=O)[C@H](CCc1ccccc1)NC(=O)CN1CCOCC1)C(=O)N[C@@H](Cc1ccccc1)C(=O)N[C@@H](CC(C)C)C(=O)[C@@]1(C)CO1	0.2

Exercise: Requested field: hsa-miR-365a-5p fold change, intracellular. Item: Cc1nc(Nc2ncc(C(=O)Nc3c(C)cccc3Cl)s2)cc(N2CCN(CCO)CC2)n1
Solution: 5.4
